tested on: HaCat; experiment: Cytotoxic Profiling of Annotated Libraries Using Quantitative High-Throughput Screening (AID 1296008); details: Five cell lines viability, CellTiter-Glo ATP luminescence, 48-72 h; hits give low values; also: % is scaled to controls: 0 for no effect and ±100 for the full control effect; nearly all actives have a fitted effect of over 60% in size
Records with an inconclusive call do not appear.
Answer each item with its documented max response.
Number only, in %; omit the unit.

Given item COC(=O)Cc1cc2c(c([N+](=O)[O-])c1)N(C(=O)CC[C@H](N)C(=O)O)CC2 , the value recorded as its max response is -29.1

Given item C=C1C[C@]23C[C@H]1CC[C@H]2[C@]1(C)CCC[C@@](C)(C(=O)O)[C@H]1[C@@H]3C(=O)O , the value recorded as its max response is -5.4

Given item CCC(O)(C(=O)OCc1ccccc1NC(=O)CCC(=O)O)C(C)O (stereo unspecified) , the value recorded as its max response is -3.62

Given item COc1cc2ncnc(Nc3cccc(Cl)c3F)c2cc1OC(=O)N1CCN(C)C[C@H]1C , the value recorded as its max response is -86.6

Given item CC(C)CC(=O)OC1OC=C(CO[C@@H]2O[C@H](CO)[C@@H](O)[C@H](O)[C@H]2O)C2CC(O)C(O)(CO)C12 (stereo partly specified) , the value recorded as its max response is -4.52

Given item COC(=O)CCSCc1ccc(-c2onc(C)c2NC(=O)OC(C)c2ccccc2Cl)cc1 (stereo unspecified) , the value recorded as its max response is -24.6

Given item CC(=O)O[C@H]1CC[C@H](C)[C@@]2(C)[C@H](OC(C)=O)c3c(C)coc3C(=O)[C@H]12 , the value recorded as its max response is 2.83

Given item CC(c1ncncc1F)C(O)(Cn1cncn1)c1ccc(F)cc1F (stereo unspecified) , the value recorded as its max response is -2.25

Given item CC1=CCC2C(C)(C)CCC[C@]2(C)[C@@]12CC[C@](C)(CC(=O)O)O2 (stereo partly specified) , the value recorded as its max response is -3.64

Given item CC1=CC(=O)CC(C)(CO)C1(O)/C=C/C(C)O[C@@H]1O[C@H](CO)[C@@H](O)[C@H](O)[C@H]1O (stereo partly specified) , the value recorded as its max response is 2.49

Given item Cn1cc(-c2ccc3nnc(Sc4ccc5nn(C)cc5c4)n3n2)cn1 , the value recorded as its max response is -20.1

Given item C[C@@H]1C[C@@H]([C@@H](O)C(C)(C)O)O[C@H]2C[C@@]3(C)C(=C12)C[C@H](O)[C@H]1[C@@]2(C)CCC(=O)C(C)(C)C2CC[C@@]13C (stereo partly specified) , the value recorded as its max response is -11.9

Given item COc1ccc(N2CCOCC2)c2sc(NC(=O)N3CCC(C)(O)CC3)nc12 , the value recorded as its max response is 3.93

Given item CCOc1ccc(S(=O)(=O)n2c(C)nc3ccccc32)cc1 , the value recorded as its max response is -31.1

Given item COC1CC(O[C@H]2CC[C@@]3(C)C(CCC4C3[C@H](OC(C)=O)[C@@H](OC(=O)/C=C/c3ccccc3)[C@]3(C)C(C(C)=O)CC[C@]43O)C2)OC(C)C1OC1CC(OC)C(OC2CC(OC)C(OC3OC(C)C(OC4OC(CO)C(O)C(O)C4O)C(OC)C3O)C(C)O2)C(C)O1 (stereo partly specified) , the value recorded as its max response is -18.9

Given item CC(C)C(C#N)O[C@@H]1O[C@H](CO[C@@H]2O[C@@H](C)[C@H](O)[C@@H](O)[C@H]2O)[C@@H](O)[C@H](O)[C@H]1O (stereo partly specified) , the value recorded as its max response is -12
